Data origin, for the record: paper PMC6018403

Below is a list of entries, each paired with its recorded AUC(0-t) value.
# experimental_details: Multi-component pharmacokinetic study of GQD, GQD-GC and single herb extracts in rats (plasma, LC/MS/MS)
# Format: in vivo, Sprague-Dawley rats
# reported_conditions: male, Sprague-Dawley, rat, plasma, po, 3.54 g/kg, HL (Huang-Lian) group: rats, oral extract 3.54 g/kg, plasma; read-out: AUClast

molecule | AUC(0-t), ng·h/mL
COc1ccc2c(c1O)-c1c(O)c(OC)cc3c1[C@H](C2)[N+](C)(C)CC3 | 556
COc1cc2c(cc1O)CC[n+]1cc3c(OC)c(OC)ccc3cc1-2 | 119
COc1cc2c(cc1OC)-c1cc3ccc4c(c3c[n+]1CC2)OCO4 [Compound 22, epiberberine] | 16.7
COc1ccc2cc3[n+](cc2c1OC)CCc1cc2c(cc1-3)OCO2 | 198
